All figures here come from patent EP0399814A2.

test system: L-M cells; experiment: NGF production and secretion by L-M cells (Furukawa method), NGF level in medium determined by enzyme immunoassay; format: cell-based, mouse; conditions: Mus musculus; compounds of the invention at 10 γ/ml; L-M cells cultured 24 hours; NGF amount relative to cells not treated with test compound; read-out: % Control
Label NOT MET if activity at 10 µg/mL falls below 600%; label MET in every other case.

Recorded results for 4 compounds are shown here.
• CC(=O)Oc1cc2c(cc1OC(C)=O)CC(C(=O)Nc1ccc(Cl)cc1Cl)CC2 (centres unmarked) = NOT MET
• CC(=O)Oc1cc2c(cc1OC(C)=O)CCC(C(=O)Nc1ccc(Cl)cc1Cl)=C2 = NOT MET
• CC(=O)Oc1cc2c(cc1OC(C)=O)CCC(C(=O)Nc1cnc3ccccc3c1)=C2 = NOT MET
• CC(=O)Oc1cc2c(cc1OC(C)=O)CC(C(=O)NC13CC4CC(CC(C4)C1)C3)CC2 (centres unmarked) = MET

Query compound follows.
Incoming: Entry CC(=O)Oc1cc2c(cc1OC(C)=O)CCC(C(=O)NC13CC4CC(CC(C4)C1)C3)=C2 : is its activity at 10 µg/mL no less than 600%?
Outgoing: NOT MET
